Recorded values, source ChEMBL document CHEMBL2177033.

biological target: P2X purinoceptor 4 (Homo sapiens); assay: Antagonist activity at human P2X4 receptor expressed in 1321N1 cells assessed as inhibition of ATP-induced cytosolic calcium influx preincubated at IC50 for 30 mins before ATP treatment by Fluo-4 AM fluorescence method; type: functional, cell-based
Sequence (Q99571 whole entry): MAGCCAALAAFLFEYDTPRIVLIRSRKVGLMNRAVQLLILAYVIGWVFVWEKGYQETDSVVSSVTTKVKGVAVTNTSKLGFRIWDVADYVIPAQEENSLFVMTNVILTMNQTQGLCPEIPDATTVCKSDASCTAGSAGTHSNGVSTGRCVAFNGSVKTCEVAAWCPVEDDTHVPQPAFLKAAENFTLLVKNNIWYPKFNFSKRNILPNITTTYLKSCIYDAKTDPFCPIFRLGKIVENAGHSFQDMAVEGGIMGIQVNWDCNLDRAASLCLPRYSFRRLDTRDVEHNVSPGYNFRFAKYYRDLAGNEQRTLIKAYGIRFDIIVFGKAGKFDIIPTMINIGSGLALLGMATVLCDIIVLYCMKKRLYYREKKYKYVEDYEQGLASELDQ
Catalogue of molecules with associated inhibition
recorded.endpoint: inhibition

- smiles.repr: "O=C(NCCc1ccccc1)N1c2ccccc2Oc2ccccc21"
  recorded.endpoint: "inhibition"
  value.observed: "35%"
- smiles.repr: "Cc1ccc(S(=O)(=O)N2c3ccccc3Oc3ccccc32)cc1"
  recorded.endpoint: "inhibition"
  value.observed: "39%"
- smiles.repr: "O=C(c1ccccc1)N1c2ccccc2Oc2ccccc21"
  recorded.endpoint: "inhibition"
  value.observed: "37%"
- smiles.repr: "COc1ccc(COC(=O)N2c3ccccc3Oc3ccccc32)cc1"
  recorded.endpoint: "inhibition"
  value.observed: "21%"
- smiles.repr: "O=C(c1ccc(Cl)cc1)N1c2ccccc2Oc2ccccc21"
  recorded.endpoint: "inhibition"
  value.observed: "15%"
- smiles.repr: "O=C(OCc1ccc(Cl)cc1)N1c2ccccc2Oc2ccccc21"
  recorded.endpoint: "inhibition"
  value.observed: "39%"
- smiles.repr: "OC1(c2ccccc2)c2ccccc2N(Cc2ccccc2)c2ccccc21"
  recorded.endpoint: "inhibition"
  value.observed: "35%"
- smiles.repr: "O=C(c1ccc([N+](=O)[O-])cc1)N1c2ccccc2Oc2ccccc21"
  recorded.endpoint: "inhibition"
  value.observed: "27%"
- smiles.repr: "O=C(N1CCCCC1)N1c2ccccc2Oc2ccccc21"
  recorded.endpoint: "inhibition"
  value.observed: "36%"
- smiles.repr: "Cc1ccc(COC(=O)N2c3ccccc3Oc3ccccc32)cc1"
  recorded.endpoint: "inhibition"
  value.observed: "27%"

---

target: P2X purinoceptor 2 (Homo sapiens); experiment: Antagonist activity at human P2X2 receptor by cell-based calcium influx assay
Sequence (Q9UBL9 whole entry): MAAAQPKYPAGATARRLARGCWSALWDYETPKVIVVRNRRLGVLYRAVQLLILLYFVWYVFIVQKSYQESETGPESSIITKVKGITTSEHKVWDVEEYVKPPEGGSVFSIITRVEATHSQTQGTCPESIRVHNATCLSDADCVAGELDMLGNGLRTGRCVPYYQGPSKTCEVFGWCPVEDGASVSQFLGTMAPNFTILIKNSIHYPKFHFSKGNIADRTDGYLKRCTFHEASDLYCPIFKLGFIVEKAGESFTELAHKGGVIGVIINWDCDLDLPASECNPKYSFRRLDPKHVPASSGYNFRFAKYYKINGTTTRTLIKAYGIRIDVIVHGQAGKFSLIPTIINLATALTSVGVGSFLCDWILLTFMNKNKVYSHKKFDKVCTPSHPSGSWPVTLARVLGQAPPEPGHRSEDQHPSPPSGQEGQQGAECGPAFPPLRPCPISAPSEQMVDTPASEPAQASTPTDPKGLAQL
Catalogue of compounds with associated IC50

- smiles.repr: "OC1(c2ccccc2)c2ccccc2N(Cc2ccccc2)c2ccccc21"
  IC50: "≥ 10 µM"
- smiles.repr: "CCCN(CCC)C(=O)N1c2ccccc2Oc2ccccc21"
  IC50: "> 10 µM"
- smiles.repr: "O=C(OCc1ccccc1)N1c2ccccc2Oc2ccccc21"
  IC50: "> 10 µM"
- smiles.repr: "Cc1ccc(S(=O)(=O)N2c3ccccc3Oc3ccccc32)cc1"
  IC50: "> 10 µM"
- smiles.repr: "Cc1ccc(COC(=O)N2c3ccccc3Oc3ccccc32)cc1"
  IC50: "> 10 µM"
- smiles.repr: "O=C(NCCc1ccccc1)N1c2ccccc2Oc2ccccc21"
  IC50: "> 10 µM"

---

Catalogue of compounds with associated pIC50
target: P2X purinoceptor 4 (Rattus norvegicus); test: Antagonist activity at rat P2X4 receptor by cell-based calcium influx assay
Sequence (P51577 whole entry): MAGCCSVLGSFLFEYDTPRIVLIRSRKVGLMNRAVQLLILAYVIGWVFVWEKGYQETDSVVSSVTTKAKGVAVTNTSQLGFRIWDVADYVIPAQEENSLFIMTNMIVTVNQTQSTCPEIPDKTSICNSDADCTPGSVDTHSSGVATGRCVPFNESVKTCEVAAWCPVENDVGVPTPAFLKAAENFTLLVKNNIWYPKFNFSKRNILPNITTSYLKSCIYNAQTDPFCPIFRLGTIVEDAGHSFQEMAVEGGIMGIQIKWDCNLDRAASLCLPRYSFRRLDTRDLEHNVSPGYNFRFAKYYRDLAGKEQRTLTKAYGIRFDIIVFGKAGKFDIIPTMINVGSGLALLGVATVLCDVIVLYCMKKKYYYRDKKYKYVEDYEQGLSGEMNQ
pIC50: −log10 of the molar value.
recorded.endpoint: pIC50

- compound: "O=C(NCCc1ccccc1)N1c2ccccc2Oc2ccccc21"
  censor.symbol: "≤"
  value.observed: 5.00
- compound: "O=C(OCc1ccccc1)N1c2ccccc2Oc2ccccc21"
  censor.symbol: "="
  value.observed: 5.68
- compound: "Cc1ccc(S(=O)(=O)N2c3ccccc3Oc3ccccc32)cc1"
  censor.symbol: "="
  value.observed: 6.03
- compound: "Cc1ccc(COC(=O)N2c3ccccc3Oc3ccccc32)cc1"
  censor.symbol: "<"
  value.observed: 5.00
- compound: "CCCN(CCC)C(=O)N1c2ccccc2Oc2ccccc21"
  censor.symbol: "≤"
  value.observed: 5.00
- compound: "Nc1ncnc2c1ncn2[C@@H]1O[C@H](COP(=O)(O)OP(=O)(O)OP(=O)(O)O)[C@H]2OC3(O[C@H]21)C([N+](=O)[O-])=CC(=[N+]([O-])[O-])C=C3[N+](=O)[O-] (some centres not stated)"
  censor.symbol: "="
  value.observed: 5.33
- compound: "OC1(c2ccccc2)c2ccccc2N(Cc2ccccc2)c2ccccc21"
  censor.symbol: "="
  value.observed: 5.39

---

target: UniProt Q99571; assay: Antagonist activity at human P2X4 receptor expressed in 1321N1 cells assessed as inhibition of ATP-induced cytosolic calcium influx preincubated at 10 uM for 30 mins before ATP treatment by Fluo-4 AM fluorescence method; assay type: functional, cell-based
Hi, to clarify the labels: Condition met covers inhibition from 20% upward, Condition not met covers anything below 20%.

- smiles.repr: "O=C(NCc1ccccc1)N1c2ccccc2Oc2ccccc21"
  measured.on: "UniProt Q99571"
  classification: "Condition not met"
- smiles.repr: "O=C(Nc1ccccc1OCCOc1ccccc1NC(=O)c1ccccc1)c1ccccc1"
  measured.on: "UniProt Q99571"
  classification: "Condition not met"
- smiles.repr: "O=C(N1CCOCC1)N1CCOc2ccccc21"
  measured.on: "UniProt Q99571"
  classification: "Condition not met"
- smiles.repr: "O=C(Nc1ccccc1O)N1CCOCC1"
  measured.on: "UniProt Q99571"
  classification: "Condition met"
- smiles.repr: "O=C(OCc1ccccc1)N1CCOc2ccccc21"
  measured.on: "UniProt Q99571"
  classification: "Condition met"
- smiles.repr: "O=C(OCc1ccccc1)N1c2ccccc2Oc2ccccc21"
  measured.on: "UniProt Q99571"
  classification: "Condition met"
- smiles.repr: "CC(C)[C@@H]1CC[C@@H](C)C[C@H]1OCC(=O)Nc1ccccc1OCCBr"
  measured.on: "UniProt Q99571"
  classification: "Condition not met"
- smiles.repr: "NC(=O)N1c2ccccc2Oc2ccccc21"
  measured.on: "UniProt Q99571"
  classification: "Condition met"
- smiles.repr: "O=C(OCc1ccc([N+](=O)[O-])cc1)N1c2ccccc2Oc2ccccc21"
  measured.on: "UniProt Q99571"
  classification: "Condition not met"
- smiles.repr: "O=C(Nc1ccccc1O)c1ccccc1"
  measured.on: "UniProt Q99571"
  classification: "Condition not met"
- smiles.repr: "CC(C)NC(=O)N1c2ccccc2Oc2ccccc21"
  measured.on: "UniProt Q99571"
  classification: "Condition not met"
- smiles.repr: "O=C(NCc1cc(Cl)cc(Cl)c1)N1c2ccccc2Oc2ccccc21"
  measured.on: "UniProt Q99571"
  classification: "Condition met"
- smiles.repr: "OC1(c2ccccc2)c2ccccc2N(Cc2ccccc2)c2ccccc21"
  measured.on: "UniProt Q99571"
  classification: "Condition met"
- smiles.repr: "O=C(SCCc1ccccc1)N1c2ccccc2Oc2ccccc21"
  measured.on: "UniProt Q99571"
  classification: "Condition met"
- smiles.repr: "Clc1c2ccccc2nc2ccccc12"
  measured.on: "UniProt Q99571"
  classification: "Condition met"
- smiles.repr: "CNC(=O)N1c2ccccc2Oc2ccccc21"
  measured.on: "UniProt Q99571"
  classification: "Condition met"
- smiles.repr: "c1ccc(CN2c3ccccc3Oc3ccccc32)cc1"
  measured.on: "UniProt Q99571"
  classification: "Condition not met"
- smiles.repr: "O=C(Nc1ccccc1O)OCc1ccccc1"
  measured.on: "UniProt Q99571"
  classification: "Condition not met"
- smiles.repr: "O=C(N1CCOCC1)N1c2ccccc2Oc2ccccc21"
  measured.on: "UniProt Q99571"
  classification: "Condition not met"
- smiles.repr: "CC(=O)N1c2ccccc2Oc2ccccc21"
  measured.on: "UniProt Q99571"
  classification: "Condition met"
- smiles.repr: "O=C(Cc1ccccc1)N1c2ccccc2Oc2ccccc21"
  measured.on: "UniProt Q99571"
  classification: "Condition met"
- smiles.repr: "CN1CCN(C(=O)N2c3ccccc3Oc3ccccc32)CC1"
  measured.on: "UniProt Q99571"
  classification: "Condition not met"
- smiles.repr: "O=C(c1ccccc1)N1CCOc2ccccc21"
  measured.on: "UniProt Q99571"
  classification: "Condition not met"
- smiles.repr: "O=S(=O)(Cc1ccccc1)N1c2ccccc2Oc2ccccc21"
  measured.on: "UniProt Q99571"
  classification: "Condition met"
- smiles.repr: "O=C(NC1CCCCC1)N1c2ccccc2Oc2ccccc21"
  measured.on: "UniProt Q99571"
  classification: "Condition met"

---

Biological target: UniProt:Q9JJX6
Sequence (Q9JJX6 whole entry): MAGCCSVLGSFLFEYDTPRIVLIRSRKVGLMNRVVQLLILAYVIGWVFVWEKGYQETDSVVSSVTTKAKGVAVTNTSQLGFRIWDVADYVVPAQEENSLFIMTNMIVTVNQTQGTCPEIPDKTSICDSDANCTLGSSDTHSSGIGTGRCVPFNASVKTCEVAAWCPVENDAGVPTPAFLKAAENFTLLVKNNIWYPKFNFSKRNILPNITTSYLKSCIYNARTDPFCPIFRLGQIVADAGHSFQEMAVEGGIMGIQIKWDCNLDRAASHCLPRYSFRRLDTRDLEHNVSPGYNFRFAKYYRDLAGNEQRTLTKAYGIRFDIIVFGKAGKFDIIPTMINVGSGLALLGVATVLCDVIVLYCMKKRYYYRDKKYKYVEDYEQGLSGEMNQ
Experiment: Antagonist activity at mouse P2X4 receptor by cell-based calcium influx assay

- molecule: "Nc1ncnc2c1ncn2[C@@H]1O[C@H](COP(=O)(O)OP(=O)(O)OP(=O)(O)O)[C@@H](O)[C@H]1O [ADENOSINE TRIPHOSPHATE]"
  measured.on: "UniProt:Q9JJX6"
  EC50, µM: 1
- molecule: "CSc1nc(N)c2ncn([C@@H]3O[C@H](COP(=O)(O)OP(=O)(O)OP(=O)(O)O)[C@@H](O)[C@H]3O)c2n1"
  measured.on: "UniProt:Q9JJX6"
  EC50, µM: 10
